# Target Or Test System: NK2 (Homo sapiens)
# Sequence (P21452 whole entry): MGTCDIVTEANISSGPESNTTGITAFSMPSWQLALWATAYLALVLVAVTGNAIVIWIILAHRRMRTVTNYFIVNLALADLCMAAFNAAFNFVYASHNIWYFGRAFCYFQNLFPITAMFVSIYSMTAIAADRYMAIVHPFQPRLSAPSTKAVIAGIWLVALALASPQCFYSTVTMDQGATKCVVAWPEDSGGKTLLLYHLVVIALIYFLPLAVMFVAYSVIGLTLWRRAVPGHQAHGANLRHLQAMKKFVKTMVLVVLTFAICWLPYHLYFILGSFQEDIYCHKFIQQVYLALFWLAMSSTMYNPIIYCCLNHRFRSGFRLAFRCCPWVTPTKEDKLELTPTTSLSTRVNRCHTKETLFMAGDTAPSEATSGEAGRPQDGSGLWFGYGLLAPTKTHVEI
# Assay Notes: Signal transduction (ST), intracellular Ca++ (FLIPR), NK2
# Assay type: cell-based
# Conditions: read-out: pIC50 NK2 (converted)
Observable: IC50 (nM)

Here are 3 molecules together with their reported answers.
CC(C)(C)OC(=O)NC(C)(C)C(=O)N1CCC(N2CCN(C3CCN(C(=O)c4cc(C(F)(F)F)cc(C(F)(F)F)c4)C(Cc4ccccc4)C3)CC2)C1 (stereo not drawn) [Compound 205] : 3160
O=C(c1ccoc1)N1CCC(N2CCN(C3CCN(C(=O)c4cc(C(F)(F)F)cc(C(F)(F)F)c4)C(Cc4ccc(F)c(F)c4)C3)CC2)C1 (single isomer, unassigned) [Compound 258] : 501
O=C(c1ccccc1O)N1CCC(N2CCN([C@H]3CCN(C(=O)c4cc(C(F)(F)F)cc(C(F)(F)F)c4)[C@H](Cc4ccccc4)C3)CC2)C1 (stereo partly drawn) [Compound 327] : 3980

(A) O=C(c1cc(C(F)(F)F)cc(C(F)(F)F)c1)N1CC[C@H](N2CCN([C@@H]3CCNC3)CC2)C[C@H]1Cc1ccc(Cl)c(Cl)c1 [Compound 262]
(B) O=C(C1CCOC1)N1CCC(N2CCN(C3CCN(C(=O)c4cc(C(F)(F)F)cc(C(F)(F)F)c4)C(Cc4ccc(F)c(F)c4)C3)CC2)C1 (single isomer, unassigned) [Compound 269]
(C) O=C(c1ccco1)N1CCC(N2CCN([C@H]3CCN(C(=O)c4cc(C(F)(F)F)cc(C(F)(F)F)c4)[C@H](Cc4ccccc4)C3)CC2)C1 (stereo partly drawn) [Compound 35]
Order the items by recorded IC50; the first position goes to the largest value. Answer format: the labels, ordered as requested. C, B, A
(C: 3980 nM, B: 2510 nM, A: 501 nM)

---

# Target Or Test System: UniProt:P29371
# Sequence (P29371 whole entry): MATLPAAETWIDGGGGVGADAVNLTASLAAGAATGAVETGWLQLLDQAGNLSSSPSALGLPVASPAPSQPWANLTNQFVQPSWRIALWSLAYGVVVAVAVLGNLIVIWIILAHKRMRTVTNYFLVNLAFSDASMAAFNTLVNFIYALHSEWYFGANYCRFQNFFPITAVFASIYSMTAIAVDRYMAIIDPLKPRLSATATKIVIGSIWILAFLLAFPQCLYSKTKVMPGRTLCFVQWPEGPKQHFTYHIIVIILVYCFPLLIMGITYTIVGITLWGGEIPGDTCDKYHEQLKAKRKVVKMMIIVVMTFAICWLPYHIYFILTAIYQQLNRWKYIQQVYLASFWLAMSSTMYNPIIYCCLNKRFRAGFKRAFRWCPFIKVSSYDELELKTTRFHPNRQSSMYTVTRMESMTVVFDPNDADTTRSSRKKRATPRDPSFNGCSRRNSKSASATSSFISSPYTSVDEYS
# Assay Notes: Signal transduction (ST), intracellular Ca++ (FLIPR), NK3
# Assay type: cell-based
# Conditions: read-out: pIC50 NK3 (converted)
Observable: IC50 (nM)

Here are 3 compounds together with their reported answers.
O=C(c1cc(C(F)(F)F)cc(C(F)(F)F)c1)N1CC[C@H](N2CCN(C3CCN(S(=O)(=O)c4ccccc4O)C3)CC2)C[C@H]1Cc1ccccc1 (some centres unmarked) : 1260
CC(C)(C)C(=O)N1CCC(N2CCN(C3CCN(C(=O)c4cc(C(F)(F)F)cc(C(F)(F)F)c4)C(Cc4ccc(F)c(F)c4)C3)CC2)C1 (single isomer, unassigned) : 631
Cc1nnsc1C(=O)N1CCC(N2CCN(C3CCN(C(=O)c4cc(C(F)(F)F)cc(C(F)(F)F)c4)C(Cc4ccccc4)C3)CC2)C1 (single isomer, unassigned) [Compound 380] : 1580

(I) O=C(c1cccs1)N1CCC(N2CCN([C@H]3CCN(C(=O)c4cc(C(F)(F)F)cc(C(F)(F)F)c4)[C@H](Cc4ccccc4)C3)CC2)C1 (some centres unmarked)
(II) N#Cc1ccc(C(=O)N2CCC(N3CCN([C@H]4CCN(C(=O)c5cc(C(F)(F)F)cc(C(F)(F)F)c5)[C@H](Cc5ccccc5)C4)CC3)C2)cc1 (some centres unmarked)
Could you point out whether the larger IC50 belongs to I or to II ? Which one? Tell me its label. II
(II: 2000 nM, I: 251 nM)
